- assay.method.text: soluble on expression in E. coli; label from the status in PepcDB or PDB records
reported.metric: soluble on expression in E. coli

sequence.input	reported.metric	observed.result
MGSDKIHHHHHHMTEDIIKKYRGKLPESILEQWHLFGFAGYLNGLYWITNPDDYAEVIYDWLEETPLPDDDVYHVLARSAFGELLIWGERNYGRYYIKTMEGILHDNGEQLESAEFYGSDFFFLPKKNYLDYTDKNGNKLFDRAVKKLGVLKADEMYAFEPALALGGEESLQHLTKVNLPVHMKLLKQVTPLRLRTFEDLTAALYGTSYSVDDLTSGQDAESQYQESVQAGEVCPRTGYWTTPAQPNTRHYCKKGEVLPEIKEQDWGEVYWYWDGEN	soluble on expression in E. coli	not soluble
MGSDKIHHHHHHMNPPKRLLVIHRALAPYRIELLNTLSAAFDTHIYFEFASPIEQRFDAGELAKRVHFQSSVLPPAPKIPGLKNFRPYAASLVRSLRPDVVLCSEFNLLTLTLTAASRLFSPKTKLYVLCDDNEQMAEAELHYGRGLKHRMLSYVEGVILCDSRACDLYASRFATLDRERFVYLPIVQDEKVLRPLYEQVFGIGRDLRHALIPAGARMILYVGRLSEEKNLPALIDNLSTLPDDVHLVIVGDGPMQSALMNQVQATGHPERIIFAGKKEGAELYAYYTQADCLVLPSMRECFGSVVNEALIAGVPVVCSDIAGASCLVTESNGRTFSPMLPNALSQACNDLLGSIAPFCGDSLRPSLMPFTFERAIAPVLSLLSR	soluble on expression in E. coli	not soluble

* * *

- assay.method.text: soluble on expression in E. coli; label from the status in PepcDB or PDB records

sequence.input	soluble on expression in E. coli
MASPPPFHSQKLPGEYFRYKGVPFPVGLYSLESISLAENTQDVRDDDIFIITYPKSGTTWMIEIICLILKEGDPSWIRSVPIWERAPWCETIVGAFSLPDQYSPRLMSSHLPIQIFTKAFFSSKAKVIYMGRNPRDVVVSLYHYSKIAGQLKDPGTPDQFLRDFLKGEVQFGSWFDHIKGWLRMKGKDNFLFITYEELQQDLQGSVERICGFLGRPLGKEALGSVVAHSTFSAMKANTMSNYTLLPPSLLDHRRGAFLRKGVCGDWKNHFTVAQSEAFDRAYRKQMRGMPTFPWDEDPEEDGSPDPEPSPEPEPKPSLEPNTSLEREPRPNSSPSPSPGQASETPHPRPS	soluble
MNYVERYIEQFLRATVRNNIKHYLLMLDEKMKNLDDYMRYLITKKEQLSKLIDSLMLTLENKYIDIAEAFQIQCAREINNQEIENIKSELNKVEAYYAQIETQIQQTSTEKIATEKTSYLINYMNAVALEHHHHHH	soluble
MSLEAKKDMGRCLWELKDEIDHVDRYCHDLAAWDDLHAFIKAPNADFLKINLNADTILDNEVSFICIVDRSGQLLFAEDWDLHRKEKTVLTTLPDSLRSVASLPFSSESDKDDLSNMKRVGIYNSSRGPMMLSSRPIITSNQQGPVQGAVIIGRLLDQGSLDAMMVRVALNFRFIDMSGDELTAKEKKILGELAVEEISIVERENSDNLEVYSHLADIGGRYLIQAEIPKHILQREGHHHHHH	soluble
MPEKKPVTAENSVGIDLGIEKFAILSDGIAVENPRFIKRVEKRIKKLQKQISRKKKGSKNYEKQKIRIQKKYRKLRNLRDDFHDKVSTAIAKRYDTIFIEDLNVRGMQRNHHLARSITDVSFYSFKEKLKWKADRYGKNLIEIGRFDPSSKLCSRCGNIKKDLKLSDRVYSCDACGLTIDRDYNASLDIRKIGLVKVGLVPPEFTPVEIATSGLDGIYPYRQMSVGESGRSEASAEELEHHHHHH	not soluble
MKEVEKNEIKRLSDRLDAIRHQQAGLSLVESADKYAELEKEKETLEAEIIRLREVHSQKLSKEAQKLMNLPFRRAITKKEQADMGKLKKSVRGLIVVHPMTALGREMGLKEMTGFAKSEF	not soluble
SGPLRDKVVIFIYWRENDLSIYLDLSGEPISRHGYRLNPWKAPMAETLAAGVIITSEWNPTTPFINPMCGSGTLAIEAALIGTHKIPGLVREDYAFQHIHGYVAETWKTMREMAQQKVLPALPFKIIASDHDQRALDAAKVNAEKAGVDHLIDFVLSDFQDTPVEENQAGVVILNPEYGERLGDEESLVLTYKEIGDFFKQKCGGYKGFVFTGNLELAKRIGLKPKRKIKFFSAKIECRLMQYELYSGTKRVVFKTE	not soluble
MHVDPIVEALIIRRKEHGLSREQMANIAGMSVKTYQRIERGESDLKLSQYRSILRSLNLTDLDIALDIRGIEHVTAEDLVTVARLLSPEAQSLLVRLLSLVLEQRSDPNAS	not soluble
MCIGVPGQIRAIDGNQAKVDVCGIQRDVDLTLVGSCDENGQPRLGQWVLVHVGFAMSVINEAEARDTLDALQNMFDVEPDVGALLYGEER	not soluble
MIVIEGSDKFKIAKEYIDVEYTLFSKVTFRYEKLKFKDNAELEKIKMFKYKNGYIPNKLNLSFGYGFSSYKKQIIRETVDTLRLTEIFSSENIEDIKFIKDGTKKLEISIEKVVKFKRRKKRNYVCCYCPDMYRDIKLDKESINKIYNRKIKIEREVNIFEDEDVIINKKVLKFPKSWTKNMQKYWLSENKYPIHSTVIDDDRYKCCNVQYTKNRVIILYYIYNH	not soluble
MGSDKIHHHHHHLNTRDFEYFLALTQTRNFSQTAEQFAVSQPTITTAIKRLEDSFQAQLIIRDRRHHDIGVTSAGKQLAAHAQVILQQLTLAQQEIAWDQTNKIRFGLPPIIGNYFFPKIAPQLIAAGLMPQLQTVEAGSAALLNQIKQGDLDFALLGASGPLQEPDLTISQIGTAPFVIITSESDPLAQKDKVRFAELAMQKFVTLSEAFVHTRAFTWFQQQSAFIPNVVYQTGDVQLLKQMVVQNVGIGFLTNLAINPDDHLAAVKLTDPKQPVFTISIVRRKDRVLTPAMQHFNQILAAN	not soluble
MSIFNKDALSSFFGLSGEEDDYYDNYEEYEERKAVNEPPRRAARPKPQRPVQQQESYSQPAYTQQSEPVVEKPSARYRSAEAHQERDTQQAAYTEKKVVSMRSSNQSATTNTRRAQESTANAKTHKITIIEPRVYSEAMSIAKHLFAEEAVLVNFTLVEEDQARRIVDFLTGTVYALDGDIQRVGNEIFLCTPANMEIDSATAQSLANKQFFDFLEHHHHHH	not soluble
MKRIDLLLNVLDSTFDKESWYAPFKYAIEGLTAEQAMWKPAGETTNTIWENVNHLTYYKERLAANLEGREWTHNLDGNDTFYLTKQSNNDTEWKEVVERSENAQRNLRQVLSAISERELEQNSLEGKLLDIMLHDAYHTGQIIQLRKMQGAWPSKR	not soluble
MGSDKIHHHHHHMNELTEFNARNDLDNELASTVSDILAKAIKEKGKASIAVSGGSTPKGFFSVLSQSDIDWSKVTITLADERWVPIDSEASNTRLVHENLLQNKAEKAKFFHLKQGDELTDETLEDLNVAASKILLPLDVLILGMGEDGHTASLFPCSDQITSGLDETNDAALLKVQPKTAPHQRISFTFASLMTSKNIFLHSCGEGKKTVLTQVLNGDDPFEMPIRAFLQHPSLNTQIFWAP	not soluble

* * *

- assay.method.text: soluble on expression in E. coli; label from the status in PepcDB or PDB records

sequence.input	soluble on expression in E. coli
MSASVPADLRNLRACLLCSLVKSVESFQKEGCENCEDVLHLKGDEEKVYDCTSANYDGMIAAMSNNESWVCKWQKMQRKVKGMYAISVSGVLPNNIVSELKSLGVRYKPNQRDYSTQFKK	not soluble
MSLQRVQIMGAGALGSLVGALIQLAGYDVIFVARGKQLEALKKGLRVSGLKNAELKVYCTSQPEDADITFVTVKAYDTETVAKKLAEVDAGVVCSLQNGVGNEEILAKYCRKVLGGVTTYGANLKDYGHVVYAGEGYTYVGEMDGRVSGEAEMVAEVLRDAGMRAEAVNDIEFRIWAKAVVNAAINPITAICRVKNGEVVRNPHLWEVARAVADEGRQVMARMGYEFDAASEVRKVAEMTAENRSSMLQDLERGKRTEVEFINGAIVKKGEEFGIDCAVNRTLLNLVRGVESGEGHHHHHH	soluble
MGSDKIHHHHHHMSCLVLPLVSVGNIPQLSIDWLLNSQANEWEYLEALDSKYLVEFVGPLDRPEDGSDSLYKDADMKYSSALEVFYNKKRGLFAIQQRTPLVSVNYLNNFIVEIILPFLSKYNISEICIWDSLYAMEDENGVIVRPQEVYSLGEFYFDDEAELLSNLHLNDQESMVNNWLHFTPTSFQDKISVDQPIFKILFQILNASQRPKALRSIKYCSCLANEGDNSLDSQQFLQWIISQKVIKNAPPIVKFVRPISWQGAYGMADARDKFVDLYN	not soluble
MGSDKIHHHHHHAAVGEKLGWPQQKISKIESGEQKRIPAAELDALLEVYGVTDPQIRESLHECARLAKERGWWTRYKDAFPSGLPDFESEASVIRSYECQVIPGILQTPDYADAIFRAYKLREDKEIDRLVKARMERQNILNRVDPPHFMTIIDEAALHRLVGSVEVMRTQLRHLTHMASRHNIDIYVLPFKAGAHAATTGSFMIMDFPDPMDNSIVYVDTPTSILYIEDEEEVREFNVMFSRTQSAALSPTLSMDLVKKVIKSLEE	not soluble
MGSDKIHHHHHHMITTDSGEQVEALAPIIISASRSTDIPAFYAKWFFNRLAKGYCVWYNPFNRRKMYVSFERCKAIVFWTKNPKLILPYLHELDRRGIHYYFQFTLNDYVSEGFEPNVPSVTQRVETFRELSEMIGKERVIWRFDPLIMTPSITPRVLLSRIWKIGNLLKGYTDKLVFSFVDVKAYRKVQNNLIKETNCFTKEDVETAEMNATQRQETVEGLVKLREIWASTGWNVTLATCAEDIDLTVYGIEHNRCIDGDLMERVFEEDYELVYYLRTGQLPEPDLFGTFPALPDKRKDLKDKGQRKACGCMISKDIGRYNTCRHFCVYCYANTSRECVQKNAVHYSDDSESLIRS	not soluble
TLSRDDAAQVAKVLSEALPYIRRFVGKTLVIKYGGNAMESEELKAGFARDVVLMKAVGINPVVVHGGGPQIGDLLKRLSIESHFIDGMRVTDAATMDVVEMVLGGQVNKDIVNLINRHGGSAIGLTGKDAELIRAKKLTVTRQTPEMTKPEIIDIGHVGEVTGVNVGLLNMLVKGDFIPVIAPIGVGSNGESYNINADLVAGKVAEALKAEKLMLLTNIAGLMDKQGQVLTGLSTEQVNELIADGTIYGGMLPKIRCALEAVQGGVTSAHIIDGRVPNAVLLEIFTDSGVGTLISNRKRH	soluble
